# TEST_SYSTEM: human receptor TRPM8 (Homo sapiens, UniProt Q7Z2W7)
# Sequence (Q7Z2W7 whole entry): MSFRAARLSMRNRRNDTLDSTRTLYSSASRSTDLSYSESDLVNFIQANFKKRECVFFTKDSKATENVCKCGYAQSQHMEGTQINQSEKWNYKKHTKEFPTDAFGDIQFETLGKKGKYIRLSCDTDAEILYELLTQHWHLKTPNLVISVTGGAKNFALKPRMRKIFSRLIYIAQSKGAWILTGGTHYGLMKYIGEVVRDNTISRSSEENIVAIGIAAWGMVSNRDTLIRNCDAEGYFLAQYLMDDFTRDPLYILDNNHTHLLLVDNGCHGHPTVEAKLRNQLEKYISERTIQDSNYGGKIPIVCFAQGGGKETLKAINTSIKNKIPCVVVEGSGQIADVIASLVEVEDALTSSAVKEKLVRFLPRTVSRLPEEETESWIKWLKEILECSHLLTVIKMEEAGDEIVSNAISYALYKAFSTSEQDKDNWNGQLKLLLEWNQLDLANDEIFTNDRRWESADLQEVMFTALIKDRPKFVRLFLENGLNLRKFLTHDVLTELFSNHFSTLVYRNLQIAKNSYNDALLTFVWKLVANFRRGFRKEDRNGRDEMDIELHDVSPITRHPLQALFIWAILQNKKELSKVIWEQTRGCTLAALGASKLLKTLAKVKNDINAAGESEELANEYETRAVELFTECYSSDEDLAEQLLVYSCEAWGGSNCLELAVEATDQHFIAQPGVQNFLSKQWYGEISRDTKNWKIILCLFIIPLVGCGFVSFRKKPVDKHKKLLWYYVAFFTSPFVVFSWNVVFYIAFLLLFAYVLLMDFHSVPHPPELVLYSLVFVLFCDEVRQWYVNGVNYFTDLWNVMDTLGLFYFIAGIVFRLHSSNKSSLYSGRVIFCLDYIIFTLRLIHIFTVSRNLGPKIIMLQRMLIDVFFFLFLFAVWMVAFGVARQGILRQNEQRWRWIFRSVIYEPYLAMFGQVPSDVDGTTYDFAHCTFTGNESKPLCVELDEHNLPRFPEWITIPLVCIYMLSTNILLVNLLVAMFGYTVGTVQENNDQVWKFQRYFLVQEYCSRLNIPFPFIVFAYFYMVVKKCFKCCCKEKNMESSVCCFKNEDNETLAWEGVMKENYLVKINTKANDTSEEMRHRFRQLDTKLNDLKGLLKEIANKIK
# TEST_NAME: Assay on TRPM8 modulators: Ca2+-sensitive dye (Fluo-4) fluorescence in HEK293 cells stably transfected with human TRPM8
# ASSAY_SETUP: tetracycline-induced, Fluo-4AM, agonist mode, triplicate, test concentrations 0.1-200 μM
# Protocol: In this connection, “standard conditions” is understood as meaning an activity test carried out with HEK293 cells which have been transformed with human TRPM8 and loaded with calcium-sensitive dye (such as e.g. Fluo-4AM, i.e. fluo-4-acetoxymethyl ester), subsequent addition of the test compound and detection of the color change, the experimental procedure taking place at 37° C.; as described e.g. example 3 below, or in Behrendt et al. (2004) loc. cit.). […]
OBSERVATION_TYPE: EC50 (µM)

MOLECULE: C=C1C2(C(=O)NCCc3ccccc3)CCC(C2)C1(C)C (stereo not drawn)
OBSERVATION_TYPE: EC50
ENDPOINT_UNIT: µM
READING: 100

MOLECULE: CC1(C)CC2CC(C)(CN2/C=N/c2sc3c(c2C#N)CCCCC3)C1 (stereo not drawn)
OBSERVATION_TYPE: EC50
ENDPOINT_UNIT: µM
READING: 10

MOLECULE: C=CCn1c(C)cc(C(=O)CSc2nc(C)cc(C(F)(F)F)c2C#N)c1C
OBSERVATION_TYPE: EC50
ENDPOINT_UNIT: µM
READING: 25

MOLECULE: O=C1CN(C(=O)c2ccccc2)c2ccc(C(F)(F)F)cc2N1
OBSERVATION_TYPE: EC50
ENDPOINT_UNIT: µM
READING: 10

MOLECULE: COc1cnc(-c2ccccn2)nc1NC(C)C
OBSERVATION_TYPE: EC50
ENDPOINT_UNIT: µM
READING: 2

MOLECULE: Cn1nc(C(F)(F)F)cc1Oc1cc(C2OCCO2)cc(Cl)n1
OBSERVATION_TYPE: EC50
ENDPOINT_UNIT: µM
READING: 50

MOLECULE: CC1OC(=O)C2=C1N1CCc3ccccc3C1CC21SCCS1 (stereo not drawn)
OBSERVATION_TYPE: EC50
ENDPOINT_UNIT: µM
READING: 0.4

MOLECULE: O=C(Nc1cccc2ccccc12)N(Cc1ccccc1)c1ccccc1
OBSERVATION_TYPE: EC50
ENDPOINT_UNIT: µM
READING: 10

MOLECULE: Cc1ccc2c(C)c(C(=O)N(Cc3ccco3)C3CCS(=O)(=O)C3)oc2c1 (stereo not drawn)
OBSERVATION_TYPE: EC50
ENDPOINT_UNIT: µM
READING: 20

====

# TEST_SYSTEM: human receptor TRPM8 (Homo sapiens)
# TEST_NAME: Assay on TRPM8 modulators: Ca2+-sensitive dye (Fluo-4) fluorescence in HEK293 cells stably transfected with human TRPM8
# ASSAY_SETUP: tetracycline-induced, Fluo-4AM, agonist mode, triplicate, test concentrations 0.1-200 μM
pEC50: −log10 of the molar value.
OBSERVATION_TYPE: pEC50

COMPOUND: O=C(/C=C/c1ccc2c(c1)OCO2)N(c1ccccn1)C1CCCCC1 [Compound 5]
READING: 5.60

COMPOUND: CC1=C/C(=N\NC(=O)CCN2CCN(c3ccccc3)CC2)CC1 [Compound 18]
READING: 4.00

COMPOUND: CC(NCc1ccc(OC(F)F)cc1)c1ccc2c(c1)CCCC2 (stereo not shown) [Compound 13]
READING: 5.00

COMPOUND: CCCCCCNC(=O)N(Cc1ccccc1)c1ccccc1 [Compound 7]
READING: 5.40

COMPOUND: COc1ccc(C(=O)Nc2sc3c(c2CN(C)C)CCCC3)cc1 [Compound 12]
READING: 5.00

COMPOUND: CCOC(=O)C1CCN(Cc2cc(C(C)C)c(O)c(C(C)C)c2)CC1 [Compound 14]
READING: 4.70

COMPOUND: O=C(Nc1ccc([N+](=O)[O-])cc1)Nc1ccccc1N1CCCCC1 [Compound 6]
READING: 5.46

COMPOUND: Cc1[nH]c(SC(C)C(=O)Nc2cccc(C#N)c2)nc1Cc1ccccc1 (stereo not shown) [Compound 8]
READING: 5.30

COMPOUND: O=C(COc1ccc2c(c1)OCO2)N(c1ccccc1)C1CCCCC1 [Compound 4]
READING: 5.60

COMPOUND: CC1(C)CC(=O)C2=C(C1)N1CCc3ccccc3C1CC21SCCS1 (stereo not shown) [Compound 2]
READING: 5.70
